System: SF-295 CNS
Experiment: NCI-60 one-dose screen, 48 h (100 = growth as untreated, 0 = no growth, -100 = all killed)
Conditions: 10 µM unless noted
Procedure: Cells are grown in 96 well plates and exposed to the test compound for 48 hours. Compounds are tested at a single concentration, which is 10^-5 M for most compounds. The reported endpoint is percent growth (GI% or GIPRCNT), where numbers from 0 - 100% represent growth inhibition, and numbers from -100% - 0 represent cell death. For example, a value of 40 represents 60% growth inhibition. A value of 0 means no net growth occurred over the course of the experiment. […]
Compounds without any hit were thinned out: in the full panel of roughly 83,000, 20% have a hit.
Please respond with reported growth for every item in the list.
A number alone suffices; assume %.

Request - read-out growth | tested on SF-295 CNS | compound `COc1cc(C(=O)N2CCN(C(=O)c3cc(OC)c(OCc4ccccc4)cc3N)CC2)c(N)cc1OCc1ccccc1`
102

Request - read-out growth | tested on SF-295 CNS | compound `CO[C@H]1/C=C/C=C/C=C/C[C@H](OC(=O)[C@@H](C)NC(=O)C2CCCCC2)[C@H](C)[C@@H](O)/C(C)=C\CCC2=CC(=O)C=C(NC(=O)C1)C2=O`
-33.5

Request - read-out growth | tested on SF-295 CNS | compound `CC(=O)c1cc2c(N)c(C(=O)Nc3cccc(Cl)c3)sc2nc1C`
84.3
